# System: Male mice (CFLP strain)
# Experiment: Hotplate test
# Type: in vivo
# Run parameters: Mus musculus, sc; 55° C. hotplate, 15 mins. after treatment; reaction time twice the pretreatment figure; Ex. compounds calculated as the peptide per se
# ED50 per record follows
Return type: number; implicit unit mg/kg.

In [3]: df
Out[3]:
                                   compound  measured_quantity  unit_abbreviation  result_value
0  CCC(=O)O[C@](Cc1ccccc1)(c1ccccc1)[C@H](C)CN(C)C [Dextropropoxyphene, reference compound]               ED50              mg/kg          25.9

Q: API: value(readout= ED50, system= Male mice (CFLP strain), query= CN1CC[C@]23c4c5ccc(O)c4O[C@H]2[C@@H](O)C=C[C@H]3[C@H]1C5 [Morphine, reference compound] )
Result: 1.8
